Biological target: HRgpA-6H (Porphyromonas gingivalis) (UniProt P28784)
Assay: ELISA on coated HRgpA-6H
Some binders, each annotated with its measured OD450nm.

>  <Binder>
KB001 mouse Fab FASEBA VH S30F (Fab, V domains shown) VH: EVQLKQSGPGLVAPSQSLSITCTVSGFSLFIYSVHWVRQPPGKGLEWLGMIWGGGSSDYNSALKSRLSISKDNSKSQVFLKMNSLQTDDTAMYYCARNGNFYAMDYWGQGTSVTVSS VL: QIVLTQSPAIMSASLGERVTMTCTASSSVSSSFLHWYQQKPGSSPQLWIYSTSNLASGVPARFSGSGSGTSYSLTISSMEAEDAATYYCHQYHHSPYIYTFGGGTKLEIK

>  <OD450nm>
0.438

$$$$
>  <Binder>
KB001 mouse Fab FASEBA VH Y59M/S571 (Fab, V domains shown) VH: EVQLKQSGPGLVAPSQSLSITCTVSGFSLSIYSVHWVRQPPGKGLEWLGMIWGGGSIDMNSALKSRLSISKDNSKSQVFLKMNSLQTDDTAMYYCARNGNFYAMDYWGQGTSVTVSS VL: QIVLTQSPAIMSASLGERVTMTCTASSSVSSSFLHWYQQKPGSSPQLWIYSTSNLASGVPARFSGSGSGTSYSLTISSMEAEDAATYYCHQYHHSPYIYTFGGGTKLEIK

>  <OD450nm>
0.701

$$$$
>  <Binder>
KB001 mouse Fab FASEBA VH Y59K (Fab, V domains shown) VH: EVQLKQSGPGLVAPSQSLSITCTVSGFSLSIYSVHWVRQPPGKGLEWLGMIWGGGSSDKNSALKSRLSISKDNSKSQVFLKMNSLQTDDTAMYYCARNGNFYAMDYWGQGTSVTVSS VL: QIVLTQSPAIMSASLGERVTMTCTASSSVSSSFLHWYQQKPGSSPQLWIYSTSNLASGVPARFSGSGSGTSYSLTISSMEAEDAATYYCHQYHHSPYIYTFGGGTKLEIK

>  <OD450nm>
0.648

$$$$
>  <Binder>
KB001 mouse Fab FASEBA VH Y106Q (Fab, V domains shown) VH: EVQLKQSGPGLVAPSQSLSITCTVSGFSLSIYSVHWVRQPPGKGLEWLGMIWGGGSSDYNSALKSRLSISKDNSKSQVFLKMNSLQTDDTAMYYCARNGNFYAMDQWGQGTSVTVSS VL: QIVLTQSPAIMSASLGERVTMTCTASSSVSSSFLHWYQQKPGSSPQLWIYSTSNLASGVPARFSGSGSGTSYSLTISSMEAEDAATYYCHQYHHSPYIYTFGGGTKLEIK

>  <OD450nm>
0.792

$$$$

These measurements were taken from patent US20230365662A1.
